Kindly state MIC for each of the entries shown.
test system: Streptococcus agalactiae B; experiment: microbe, parasite or virus in culture; assay type: cell-based; settings: 37° C., 24 h, read-out: Minimum Inhibitory Concentration, MIC
Your answer is read as µM, so omit the unit and give the number.

Report MIC for Cc1nn2c(=O)cc(-c3ccc(C(F)(F)F)nc3)[nH]c2c1-c1ccc(Cl)cc1Cl please.
0.56

MIC lookup needed for O=c1[nH]c(-c2ccc(C(F)(F)F)cc2)nc2cc(Cl)ccc12 , thanks.
225

Reported MIC, compound Cc1c(-c2ccc(C(F)(F)F)cc2)[nH]c2c(-c3ccc(Cl)cc3Cl)c(C3CC3)nn2c1=O : ____
0.55

Would you kindly share the measured MIC for O=C1C(c2ccccc2)C(O)=Nc2cc(-c3ccc(C(F)(F)F)cc3)nn21 (centres unmarked) ?
0.55

Please give the measured MIC for this compound: Cc1nn2c(=O)c(C)c(-c3ccc(C#N)cc3)[nH]c2c1-c1ccc(C(F)(F)F)cc1
0.56

Given Cc1nn2c(=O)cc(-c3ccc(C#N)cc3)[nH]c2c1-c1ccc(Cl)cc1Cl , state its recorded MIC.
5

Please give the measured MIC for this compound: Cc1c(-c2ccc(C#N)cc2)[nH]c2c(-c3ccc(Cl)cc3Cl)c(-c3ccccc3)nn2c1=O
0.25

Need MIC, item Nc1nc(-c2ccccc2)nc2c1cnn2-c1ccccc1
105
